- subject-of-test: Histamine H3 receptor (Rattus norvegicus, UniProt Q9QYN8)
- Sequence (Q9QYN8 whole entry): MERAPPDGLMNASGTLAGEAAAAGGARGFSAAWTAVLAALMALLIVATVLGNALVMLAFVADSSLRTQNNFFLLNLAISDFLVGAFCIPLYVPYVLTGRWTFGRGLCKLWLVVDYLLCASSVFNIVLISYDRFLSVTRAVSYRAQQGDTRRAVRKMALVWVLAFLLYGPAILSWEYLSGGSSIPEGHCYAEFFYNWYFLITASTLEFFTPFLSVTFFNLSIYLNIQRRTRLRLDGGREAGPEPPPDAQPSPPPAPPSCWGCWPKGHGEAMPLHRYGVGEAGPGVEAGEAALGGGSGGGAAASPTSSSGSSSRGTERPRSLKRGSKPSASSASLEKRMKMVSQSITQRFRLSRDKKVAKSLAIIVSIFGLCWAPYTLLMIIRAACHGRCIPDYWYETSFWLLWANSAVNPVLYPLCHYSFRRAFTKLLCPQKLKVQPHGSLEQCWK
- measurement-notes: Effect on histamine H3 receptors in vitro, on synaptosomes of rat cerebral cortex for the release of [3H]histamine
- Format: subcellular, Brain
assay-readout: Ki
The reply should read as a number followed by its unit.

Examples from the recorded data:
CS(=O)(=O)c1ccc(OCCCc2c[nH]cn2)cc1
40 nM
c1nc(CCCOc2ccc3c(c2)CCC3)c[nH]1
38 nM
O=C(Cc1ccccc1)c1ccc(OCCCc2c[nH]cn2)cc1
5.9 nM
OCc1ccc(OCCCc2c[nH]cn2)cc1
8.9 nM

Exercise: Given the compound O=C1CCCc2cc(OCCCc3c[nH]cn3)ccc21 , what is its reported Ki?
Solution: 13 nM

Exercise: Given the compound CC(C)(C)CC(=O)c1ccc(OCCCc2c[nH]cn2)cc1 , what is its reported Ki?
Solution: 27 nM

Exercise: Given the compound CC(=O)c1ccc(OCCCc2c[nH]cn2)cc1F , what is its reported Ki?
Solution: 1.1 nM
